Where do the numbers come from? From PubChem BioAssay (EPA / NIEHS).

- experiment notes: CEETOX_H295R_11DCORT: CeeTox H295R High-throughput Steroidogenesis Assay for 11-Deoxycortisol (11DCORT) (AID 2283432)
- condition notes: actives raise or lower the signal
Active and inactive are the calls of the source. How the source made its calls: active means hit-call score of the fitted dose curve at least 0.9, where 1 is the maximum; inactive means score below 0.9.
Outcomes: active, inactive

{"columns": ["compound", "label"],
 "data": [
  ["CC12CC1(C)C(=O)N(c1cc(Cl)cc(Cl)c1)C2=O (stereo unspecified)", "inactive"],
  ["C1CCC(NC2CCCCC2)CC1", "inactive"],
  ["C[C@]12CC[C@H](O)CC1=CC[C@@H]1[C@@H]2CC[C@]2(C)C(=O)CC[C@@H]12", "active"],
  ["Fc1ccc(C2(Cn3cncn3)OC2c2ccccc2Cl)cc1 (stereo unspecified)", "active"],
  ["Oc1ccc(-c2ccccc2)cc1", "active"],
  ["O=C(Nc1ccc2[nH]ccc2c1)c1cc2cc(F)ccc2n1Cc1cccc(F)c1", "active"]
]}

###

- target desc: Myc proto-oncogene protein (Homo sapiens) (UniProt P01106)
- Sequence (P01106 whole entry, looked up): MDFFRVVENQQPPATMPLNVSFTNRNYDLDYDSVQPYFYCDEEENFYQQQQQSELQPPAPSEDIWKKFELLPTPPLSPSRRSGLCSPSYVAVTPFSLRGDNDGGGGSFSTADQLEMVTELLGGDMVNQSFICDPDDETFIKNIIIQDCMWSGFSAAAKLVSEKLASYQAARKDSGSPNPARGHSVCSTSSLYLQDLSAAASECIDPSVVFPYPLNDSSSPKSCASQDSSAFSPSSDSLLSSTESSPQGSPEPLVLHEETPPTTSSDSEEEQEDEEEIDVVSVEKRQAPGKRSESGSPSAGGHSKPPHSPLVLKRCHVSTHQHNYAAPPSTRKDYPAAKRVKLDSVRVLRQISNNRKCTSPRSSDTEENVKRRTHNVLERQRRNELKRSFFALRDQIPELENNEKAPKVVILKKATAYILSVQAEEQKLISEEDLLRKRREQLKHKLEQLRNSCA
- experiment notes: ATG_Myc_CIS: Attagene CIS-FACTORIAL HepG2 Assay for human Myelocytomatosis (Myc) Proto-Oncogene Transcription Factor (AID 2282990)
- condition notes: HepG2, Attagene cis-reporter transcription factor activity; actives raise or lower the signal
The source made the active and inactive calls. How the source made its calls: active means hit-call score of the fitted dose curve at least 0.9, where 1 is the maximum; inactive means score below 0.9.
Outcome codes: T (active), F (inactive)

{"columns": ["compound", "target desc", "label"],
 "data": [
  ["COc1ccc(OC)c(C=O)c1", "Myc proto-oncogene protein (Homo sapiens) (UniProt P01106)", "F"],
  ["O=CC=O", "Myc proto-oncogene protein (Homo sapiens) (UniProt P01106)", "F"],
  ["CC(=O)OC(c1ccccc1)C(Cl)(Cl)Cl (stereo not drawn)", "Myc proto-oncogene protein (Homo sapiens) (UniProt P01106)", "F"],
  ["Cl/C=C/Cl", "Myc proto-oncogene protein (Homo sapiens) (UniProt P01106)", "F"],
  ["C[C@H]1O[C@@H](O[C@H]2[C@@H](O)C[C@H](O[C@H]3[C@@H](O)C[C@H](O[C@H]4CC[C@@]5(C)[C@H](CC[C@@H]6[C@@H]5CC[C@]5(C)[C@@H](C7=CC(=O)OC7)CC[C@]65O)C4)O[C@@H]3C)O[C@@H]2C)C[C@H](O)[C@@H]1O", "Myc proto-oncogene protein (Homo sapiens) (UniProt P01106)", "T"],
  ["C[C@@H](Oc1ccc(Cl)cc1Cl)C(=O)O", "Myc proto-oncogene protein (Homo sapiens) (UniProt P01106)", "F"],
  ["C=C(C)C#N", "Myc proto-oncogene protein (Homo sapiens) (UniProt P01106)", "F"],
  ["CCC(C)c1cccc(C(C)CC)c1O (stereo not drawn)", "Myc proto-oncogene protein (Homo sapiens) (UniProt P01106)", "F"],
  ["CC(Br)C(=O)O (stereo not drawn)", "Myc proto-oncogene protein (Homo sapiens) (UniProt P01106)", "F"],
  ["CCC[CH2][Sn]([CH2]CCC)([CH2]CCC)[O]C(=O)c1ccccc1", "Myc proto-oncogene protein (Homo sapiens) (UniProt P01106)", "F"],
  ["O=C(OC1CCCCC1)c1ccccc1C(=O)OC1CCCCC1", "Myc proto-oncogene protein (Homo sapiens) (UniProt P01106)", "F"],
  ["OCC(O)CCl (stereo not drawn)", "Myc proto-oncogene protein (Homo sapiens) (UniProt P01106)", "F"],
  ["O=C(O)C(F)(F)C(F)(F)C(F)(F)C(F)(F)C(F)(F)C(F)(F)F", "Myc proto-oncogene protein (Homo sapiens) (UniProt P01106)", "F"],
  ["ClCC(Cl)CCl", "Myc proto-oncogene protein (Homo sapiens) (UniProt P01106)", "F"],
  ["C=CCc1ccc(OC)cc1", "Myc proto-oncogene protein (Homo sapiens) (UniProt P01106)", "F"],
  ["NC(=S)Nc1ccccc1", "Myc proto-oncogene protein (Homo sapiens) (UniProt P01106)", "F"],
  ["COc1cc(-c2ccc(N)c(OC)c2)ccc1N", "Myc proto-oncogene protein (Homo sapiens) (UniProt P01106)", "F"],
  ["CNC(=O)O/N=C/C(C)(C)S(C)=O (stereo not drawn)", "Myc proto-oncogene protein (Homo sapiens) (UniProt P01106)", "F"]
]}

###

- experiment notes: APR_HepG2_NuclearSize_72hr: Apredica 72-hour HepG2 Assay for Nuclear Size (AID 2282925)
- condition notes: high-content imaging, actives raise or lower the signal
The source made the active and inactive calls. How the source made its calls: active means hit-call score of the fitted dose curve at least 0.9, where 1 is the maximum; inactive means score below 0.9.
Labels: YES (active), NO (inactive)

{"columns": ["compound", "label"],
 "data": [
  ["C[C@]12CCC(=O)C[C@@H]1CC[C@@H]1[C@@H]2CC[C@]2(C)[C@@H](O)CC[C@@H]12", "NO"],
  ["CC(C)(C)CC(C)(C)c1ccc(O)cc1", "NO"],
  ["O=c1[nH]c(=O)[nH]c(=O)[nH]1", "NO"],
  ["Oc1cccc2cccnc12", "NO"],
  ["CC12CC1(C)C(=O)N(c1cc(Cl)cc(Cl)c1)C2=O (configuration not stated)", "NO"],
  ["ClC1(Cl)C2(Cl)C3(Cl)C4(Cl)C(Cl)(Cl)C5(Cl)C3(Cl)C1(Cl)C5(Cl)C24Cl (configuration not stated)", "NO"],
  ["CCC(=O)C(CC(C)N(C)C)(c1ccccc1)c1ccccc1 (configuration not stated)", "NO"],
  ["CN(C)N=O", "NO"],
  ["O=C1C2(Cl)C3(Cl)C4(Cl)C(Cl)(Cl)C5(Cl)C3(Cl)C1(Cl)C5(Cl)C24Cl (configuration not stated)", "YES"],
  ["NC(=O)O", "YES"],
  ["O=C(O)C(F)(F)C(F)(F)C(F)(F)C(F)(F)C(F)(F)C(F)(F)C(F)(F)C(F)(F)C(F)(F)C(F)(F)F", "NO"],
  ["CC(C)(c1ccccc1)c1ccc(O)c(C(C)(C)c2ccccc2)c1", "NO"]
]}

###

- target desc: Hepatocyte nuclear factor 6 (Homo sapiens) (UniProt Q9UBC0)
- Sequence (Q9UBC0 whole entry, looked up): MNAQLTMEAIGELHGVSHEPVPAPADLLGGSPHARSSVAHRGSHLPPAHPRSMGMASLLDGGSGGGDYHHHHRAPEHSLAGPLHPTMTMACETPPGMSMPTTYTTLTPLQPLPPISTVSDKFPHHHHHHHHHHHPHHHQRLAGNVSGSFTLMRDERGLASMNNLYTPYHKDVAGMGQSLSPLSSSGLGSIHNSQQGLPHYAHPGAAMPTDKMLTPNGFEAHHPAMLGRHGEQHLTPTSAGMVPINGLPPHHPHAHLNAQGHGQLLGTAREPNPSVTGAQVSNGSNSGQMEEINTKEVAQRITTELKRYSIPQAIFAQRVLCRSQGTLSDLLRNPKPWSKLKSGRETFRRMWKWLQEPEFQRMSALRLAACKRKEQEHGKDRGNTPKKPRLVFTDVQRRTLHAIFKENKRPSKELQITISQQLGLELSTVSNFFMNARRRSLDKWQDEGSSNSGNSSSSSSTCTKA
- experiment notes: ATG_HNF6_CIS: Attagene CIS-FACTORIAL HepG2 Assay for human Hepatocyte Nuclear Factor 6 (HNF6) (AID 2282952)
- condition notes: HepG2 Attagene cis-factorial HNF6 reporter transcription; actives raise or lower the signal
Activity calls are given as the source filed them. How the source made its calls: active means hit-call score of the fitted dose curve at least 0.9, where 1 is the maximum; inactive means score below 0.9.
Outcome codes: yes (1) for active, no (0) for inactive

{"columns": ["compound", "label"],
 "data": [
  ["N#CCCO", "no (0)"],
  ["O=C(CCl)CCl", "yes (1)"],
  ["O=P(O)(O)CN(CP(=O)(O)O)CP(=O)(O)O", "no (0)"],
  ["N#Cc1ccccn1", "no (0)"],
  ["CC(Br)C(=O)O (stereo not given)", "no (0)"],
  ["Nc1cccc2ccccc12", "no (0)"],
  ["[O-][Cl+2]([O-])O", "no (0)"],
  ["C=C(C)C#N", "no (0)"],
  ["C[C@@H](Oc1ccc(Cl)cc1Cl)C(=O)O", "no (0)"],
  ["CCN1CCC2(CC1)COc1cc3c(cc12)N(C(=O)c1ccc(-c2ccc(-c4nnc(C)o4)cc2C)cc1)CC3", "no (0)"],
  ["C[C@]12CCC(=O)C[C@@H]1CC[C@@H]1[C@@H]2CC[C@]2(C)[C@@H](O)CC[C@@H]12", "no (0)"],
  ["COC(=O)c1sccc1S(=O)(=O)NC(=O)Nc1nc(C)nc(OC)n1", "no (0)"],
  ["COP(=S)(OC)Oc1cc(Cl)c(Cl)cc1Cl", "no (0)"],
  ["CC12CC1(C)C(=O)N(c1cc(Cl)cc(Cl)c1)C2=O (stereo not given)", "no (0)"],
  ["C1CCC(NC2CCCCC2)CC1", "no (0)"],
  ["O=C(Cc1ccccc1)c1ccccc1", "no (0)"],
  ["CC(C)OC(=O)Nc1ccccc1", "no (0)"],
  ["Cc1cc(Cl)ccc1O[C@H](C)C(=O)O", "no (0)"],
  ["OCc1ccco1", "no (0)"],
  ["CCOP(OCC)OCC", "no (0)"],
  ["O=C(Cl)c1ccc(Cl)cc1", "no (0)"],
  ["O=C1C(Cl)=C(Cl)C(=O)c2ccccc21", "no (0)"],
  ["CCOC(=O)Nc1cccc(OC(=O)Nc2ccccc2)c1", "no (0)"],
  ["Nc1ccc(N=Nc2ccc(-c3ccc(N=Nc4c(S(=O)(=O)O)cc5cc(S(=O)(=O)O)c(N=Nc6ccccc6)c(O)c5c4N)cc3)cc2)c(N)c1", "no (0)"],
  ["CCCCC(CC)CO[N+](=O)[O-] (stereo not given)", "yes (1)"],
  ["COP(=S)(OC)Oc1ccc(S(=O)(=O)N(C)C)cc1", "no (0)"],
  ["COc1ccccc1OC", "no (0)"],
  ["O=CC=O", "no (0)"],
  ["ClCCBr", "no (0)"],
  ["CCCCCCCCSC(=O)Oc1cc(Cl)nnc1-c1ccccc1", "no (0)"],
  ["ClCc1cccnc1", "no (0)"],
  ["C=CCc1ccc(OC)cc1", "no (0)"],
  ["Oc1ccc(-c2ccccc2)cc1", "no (0)"],
  ["CCCCCCCCCl", "no (0)"],
  ["Cl/C=C/Cl", "no (0)"],
  ["CCN(CC)C(=O)Cl", "no (0)"],
  ["CC(C)(C)c1cc(O)ccc1O", "no (0)"],
  ["CC(C)(c1ccc(OCC2CO2)cc1)c1ccc(OCC2CO2)cc1 (stereo not given)", "no (0)"],
  ["C[C@@H]1C[C@@H]([C@H](O)CC2CC(=O)NC(=O)C2)C(=O)[C@@H](C)C1", "no (0)"],
  ["COC(=O)Cc1ccccc1", "no (0)"],
  ["Oc1cccc2cccnc12", "no (0)"],
  ["BrCCBr", "no (0)"],
  ["CCc1ccccc1C", "no (0)"],
  ["ClCC(Cl)CCl", "no (0)"],
  ["CC(C)C1CCC(Cc2ccc(Cl)cc2)C1(O)Cn1cncn1 (stereo not given)", "no (0)"],
  ["O=C(O)C(F)(F)C(F)(F)C(F)(F)C(F)(F)C(F)(F)C(F)(F)C(F)(F)C(F)(F)C(F)(F)C(F)(F)F", "no (0)"],
  ["CC(C)(C)CC(C)(C)c1ccc(O)cc1", "no (0)"],
  ["COc1cc(OC)nc(NC(=O)NS(=O)(=O)c2ncccc2C(=O)N(C)C)n1", "no (0)"],
  ["ClC(Cl)=C(Cl)C(Cl)=C(Cl)Cl", "no (0)"],
  ["COc1ccc(OC)c(C=O)c1", "no (0)"],
  ["Nc1ncc([N+](=O)[O-])s1", "no (0)"],
  ["CN(CCCC(=O)c1cccnc1)N=O", "no (0)"],
  ["O=C(O)Cc1ccccc1", "no (0)"],
  ["CNC", "no (0)"],
  ["O=[N+]([O-])c1c(Cl)c(Cl)cc(Cl)c1Cl", "no (0)"],
  ["CCC1(c2ccc(N)cc2)CCC(=O)NC1=O (stereo not given)", "no (0)"],
  ["CNC(=O)O/N=C/C(C)(C)S(C)=O (stereo not given)", "no (0)"],
  ["CC(C)(OO)c1ccccc1", "no (0)"],
  ["CCOP(=S)(OCC)Oc1ccc(S(C)=O)cc1 (stereo not given)", "no (0)"],
  ["Nc1cccc(Cl)c1", "no (0)"]
]}
